These entries and their values trace back to the supplement of paper PMC9170038.

# Tested on: MS2 coat protein
# measurementNotes: apparent KD of MS2 coat protein; designed switch direction (-1 OFF switch, 1 ON switch): 1; higher = weaker reporter binding
# conditionDescription: input ligand: FMN 200 uM
Record form. Attribute: apparent KD of MS2 coat protein. Fill in for each entry.
Kindly provide the numeric value in nM only, without the unit symbol.

# sequence UUACUCAUGUAAGGAUAUGCAGCCGUUUCGGCUGCAGAAGGUACUAUAAUACAUGAGGAUCACCCAUGUCUUUUUAAUUUAGAC [JL SSNG1 1.29] (Eterna round: R96, puzzle: Same State NG 1) ; its apparent KD of MS2 coat protein = 56.2

# sequence GGUAGGUUACUACCAACACAUGAGGAUCACCCAUGUUAGUGGGAGGAUAUGGUACCUAUUUGGUACCAGAAGGCCUUGUUAAUU [Fiskers NG3ss - 14] (Eterna round: R96, puzzle: Same State NG 3) ; its apparent KD of MS2 coat protein = 43.7

# sequence AAGAGGUCCGCAGGAUAUACCCGGCCUCGCCGGGUAGAAGGGUGAACCUCAUAACCCACCACACACAUGAGGAUCACCCAUGUA [Enisaon] (Eterna round: R96, puzzle: Same State NG 1) ; its apparent KD of MS2 coat protein = 494

# sequence AAAAUAAGCCCUUGCACAUGAGGAUCACCCAUGUUCGGUUCACAGGAUAUCUAGUCAAACGGGCUGGAGAAGGGUGGCAAGGAC [Xequusceus] (Eterna round: R96, puzzle: Same State NG 3) ; its apparent KD of MS2 coat protein = 67.7

# sequence UGGUACAUGGGAGGAUAUCUCGUGGAGACAUGAGGAUCACCCAUGUAGAUGGCCGGUAACCGGAGAGAGAAGGCCCAUGUACCU [JL SSNG1 3.68] (Eterna round: R96, puzzle: Same State NG 2) ; its apparent KD of MS2 coat protein = 66.9

# sequence AUGAAGAAUUAAGGAUAUUGAAUACAUAUGUUUAACAUGAGGAUCACCCAUGUGGGUUGCGGUAUCGAGAAGGUAAAUUAAUAG [Mat - same State NG 2 - JL mod - D90] (Eterna round: R96, puzzle: Same State NG 2) ; its apparent KD of MS2 coat protein = 142

# sequence GGUAGGUUACUACCAAACAUGAGGAUCACCCAUGUAAGUGGGAAGGAUAUGGUACCUAAAAGGUACCAGAAGGUCCAUAUAGUU [Mat - Same State NG 3 - JL Mod - D99] (Eterna round: R96, puzzle: Same State NG 3) ; its apparent KD of MS2 coat protein = 202

# sequence AGGCUCAGACGAGGAUAUAUGCGAUCACAUGAGGAUCACCCAUGUCUCGAGCUUCGGCUCGAGGCAUAGAAGGUGUCUGAGCCA [SSNG2/4-C1] (Eterna round: R96, puzzle: Same State NG 2) ; its apparent KD of MS2 coat protein = 31.4

# sequence ACAUGAGAGUGAGGAUAUGCUGUACCUACAUGUGACAUGAGGAUCACCCAUGUGGUAAGUAUGACGCAGAAGGCACAGAUAUGU [Equivalance 78 - Jieux - Same State NG 2] (Eterna round: R96, puzzle: Same State NG 2) ; its apparent KD of MS2 coat protein = 13.3

# sequence CUGAGCAAGCAAGGAUAUCACGUCGAAUAGACGUGAGAAGGUGCUCCUUACAUGAGGAUCACCCAUGUAUAACAUGAAGCUCAG [SSNG1/10-A1] (Eterna round: R96, puzzle: Same State NG 1) ; its apparent KD of MS2 coat protein = 254

# sequence UUAUUAUUUACAUGAGGAUCACCCAUGUUUUUAUGUCAGAGAUAGGAUAUAGUUUUCUCGUUUUUCUAGAAGGAUCUUUUUAUU [JR_SSNG3_Sub085] (Eterna round: R96, puzzle: Same State NG 3) ; its apparent KD of MS2 coat protein = 18.6

# sequence GAGAGACGAUUAGGAUAUCCGGUGAUAAUGAUAGGAGAAGGAAUUGACAUGAGGAUCACCCAUGUGGGAAUAAUCCAGAGAGAG [Parity 24 - Jieux - Same State NG 1] (Eterna round: R96, puzzle: Same State NG 1) ; its apparent KD of MS2 coat protein = 86.5

# sequence UGCUUCGUGUGAGGAUAUGCUGCCGUUUCGGCUGCAGAAGGUACUAUAAUACAUGAGGAUCACCCAUGUCUGUCGGUUUGCGGG [salish99_SSng1_r04_305-lowA] (Eterna round: R96, puzzle: Same State NG 1) ; its apparent KD of MS2 coat protein = 46.4

# sequence GAGGGCGAAAGCAACAUGAGGAUCACCCAUGUCCUCGGAGGGCAGGAUAUCCGGCGGUAGCCGAAGGAGAAGGGUCGAAAAGAA [AK SSNG3-V2-34] (Eterna round: R96, puzzle: Same State NG 3) ; its apparent KD of MS2 coat protein = 34.8

# sequence AAGAAAGACGCAGGAUAUCAGUGCAAACCGCACUGAGAAGGGUGAGACAUGAGGAUCACCCAUGUAACACGGCAAAACACCGUG [Teinre] (Eterna round: R96, puzzle: Same State NG 1) ; its apparent KD of MS2 coat protein = 1240

# sequence GGUGCCAAUAAAGCCUACAUGAGGAUCACCCAUGUAUGUAGGUAGGAUAUCGUUUGCAAAGCAAACGAGAAGGGCCUAGGCACC [Mat - Same State NG 3 - JL Mod - D58] (Eterna round: R96, puzzle: Same State NG 3) ; its apparent KD of MS2 coat protein = 27

# sequence AUGAUUUAUGCAGGAUAUGAUUAACAUGAGGAUCACCCAUGUGGUGUUGUGAGUAAGGAGAGUGAUCAGAAGGGCAUUUUUUUU [JMF's solution 71] (Eterna round: R96, puzzle: Same State NG 2) ; its apparent KD of MS2 coat protein = 1170

* * *

# System: MS2 coat protein
# measurementNotes: apparent KD of MS2 coat protein; designed switch direction (-1 OFF switch, 1 ON switch): -1; higher = weaker reporter binding
# conditionDescription: input ligand: none
readoutLabel: apparent KD of MS2 coat protein (nM)
Kindly provide the numeric value in nM only, without the unit symbol.

# sequence CCCAUGUCAGGAUAUUAAUUGAGCAGGAAGCCCUGUCCACUUGAGAAGGGACAUGAGGAUCACCCAUGUAAAAC [Radiaena] (Eterna round: R97, puzzle: Exclusion 4) ; its apparent KD of MS2 coat protein = 417

# sequence AUUUAAUUUAAUAAGAUCACAUGAGGAUCACCCAUGUUAUAAUAGGAUAUCAGCUCGUUUAGAGCUGAGAAGGAUUAUAACAUG [ExNG3/9-A2] (Eterna round: R96, puzzle: Exclusion NG 3) ; its apparent KD of MS2 coat protein = 7.21

# sequence AGUCGAAAGACCCACAUGGACAUGAGGAUCACCCAUGUGCAAGCCUUUUGCUCGUCAGCUAGGUCAAAAGACCUAGC [JL Omei mod 1] (Eterna round: R97, puzzle: Sensor, turn-off variant 1) ; its apparent KD of MS2 coat protein = 813

# sequence ACACUGCGAGGAUAUACAUGAGGAUCACCCAUGUUAAGGAAGUCAAGGUUAAUUUAAGGUAGAAGGCGCGUAUU [JR_Ex3_Sub012] (Eterna round: R97, puzzle: Exclusion 3) ; its apparent KD of MS2 coat protein = 38.2

# sequence GUGCAGCGAGGAUAUACAGACGGGUCCAGUACGUGUCUUGGACUUGAGGAUCACCCAAGUAGAAGGCGUCUCAG [salish99_ex2_r4_609] (Eterna round: R97, puzzle: Exclusion 2) ; its apparent KD of MS2 coat protein = 36.8

# sequence AAGAAACAUGAGGAUCACCCAUGUGAGGAUAUGGCCCGCCCGGCGUGAGCAAAAUAAAUCAGAAGGCACAAAGG [salish99_ex1_r4_009] (Eterna round: R97, puzzle: Exclusion 1) ; its apparent KD of MS2 coat protein = 30.6

# sequence CUUAGGGCGGAGGAUAUGCCGUGGGCGAAUACAGUAGAAGGCCGCACUUGAGGAUCACCCAAGUAUGGUCAAAC [Inusisbeor] (Eterna round: R97, puzzle: Exclusion 6) ; its apparent KD of MS2 coat protein = 13.1

# sequence CGGCAUGUAGAAGGAUAUCUGCACGUUUAGUGCAGAGAAGGUCUAACAUGAGGAUCACCCAUGUAGAUCAUUAACCGAUUAAUU [ENG1/8-A2] (Eterna round: R96, puzzle: Exclusion NG 1) ; its apparent KD of MS2 coat protein = 12.1

# sequence GUACUGAAGCAUAGCUUUAGUCGUACAUGAGGAUCACCCAUGUAGGAUAUGGUAGGCUUUGCUUACUAGAAGGAUAGAGUGAUC [Mat - Exclusion NG 3 - Mod of JL - D71] (Eterna round: R96, puzzle: Exclusion NG 3) ; its apparent KD of MS2 coat protein = 109

# sequence AGCGCCAUCGUGAGAUGGCGUAUUACAUGAGGAUCACCCAUGUAGGAUAUCGAUUGCUUUGCAGUCGAGAAGGGCAUGUCCCAG [JL ENG3 3.80 Mod J] (Eterna round: R96, puzzle: Exclusion NG 3) ; its apparent KD of MS2 coat protein = 24.1
